# measured target: Mouse ACVR2A (mouse, UniProt P27038 20-135, limits assumed); further: test concentration or dose not given here
# Sequence (P27038 20-135 limits assumed): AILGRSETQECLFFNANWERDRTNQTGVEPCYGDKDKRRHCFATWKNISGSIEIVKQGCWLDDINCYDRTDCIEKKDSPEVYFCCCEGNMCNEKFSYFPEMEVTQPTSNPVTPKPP
# assay remarks: ELISA
experimental readout: optical density (OD)
Please give a number only; it is taken to be in OD.

Before answering, review these 5 worked examples.
368_E07 (antibody, V domains shown) VH: EVQLLESGGGLVQPGGSLRLSCAASGFTFSSYGMNWVRQAPGKGLEWVAGINYNGGYTSYADSVKGRFTISRDNSKNTLYLQMNSLRAEDTAVYYCAKSANWHDTALDYWGQGTLVTVSS VL: DIQMTQSPSSLSASVGDRVTITCRASQSILSYLNWYQQKPGKAPKLLIYAVTSRASGVPSRFSGSGSGTDFTLTISSLQPEDFATYYCQQSYENPLTFGGGTKVEIK: 1.17
373_C11 (antibody, V domains shown) VH: EVQLLESGGGLVQPGGSLRLSCAASGFTFSSYSMNWVRQAPGKGLEWVSGINYNSGYTGYADSVKGRFTISRDNSKNTLYLQMNSLRAEDTAVYYCARSANWHDTALDYWGQGTLVTVSS VL: DIQMTQSPSSLSASVGDRVTITCRASQSILTYVNWYQQKPGKAPKLVIYAVTSRASGVPSRFSGSGSGTDFTLTISSLQPEDFATYYCQQSYETPLTFGGGTKVEIK: 3.47
371_F06 (antibody, V domains shown) VH: EVQLLESGGGLVQPGGSLRLSCAASGFTFDSYSMNWVRQAPGKGLEWVANINYNGGYTSYADSVKGRFTISRDNSKNTLYLQMNSLRAEDTAVYYCARSANWHDTALDYWGQGTLVTVSS VL: DIQMTQSPSSLSASVGDRVTITCRASQSIVSYLNWYQQKPGKAPKLVIYAATSRHSGVPSRFSGSGSGTDFTLTISSLQPEDFATYYCQQSYNSPLTFGGGTKVEIK: 2.79
369_G06 (antibody, V domains shown) VH: EVQLLESGGGLVQPGGSLRLSCAASGFTFDSYGMNWVRQAPGKGLEWVAGINYNGGYTSYADSVKGRFTISRDNSKNTLYLQMNSLRAEDTAVYYCARSANWHDTALDYWGQGTLVTVSS VL: DIQMTQSPSSLSASVGDRVTITCRASQSILSYVNWYQQKPGKAPKLVIYAATSRASGVPSRFSGSGSGTDFTLTISSLQPEDFATYYCQQSYENPLTFGGGTKVEIK: 2.91
373_C08 (antibody, V domains shown) VH: EVQLLESGGGLVQPGGSLRLSCAASGFTFSSYSMNWVRQAPGKGLEWVANINYNGGYTSYADSVKGRFTISRDNSKNTLYLQMNSLRAEDTAVYYCARSANWHDTALDYWGQGTLVTVSS VL: DIQMTQSPSSLSASVGDRVTITCRASQSIISYLNWYQQKPGKAPKLLIYAASSLQSGVPSRFSGSGSGTDFTLTISSLQPEDFATYYCQQSYNNPLTFGGGTKVEIK: 3.19

Entry 370_F10 (antibody, V domains shown) VH: EVQLLESGGGLVQPGGSLRLSCAASGFTFSSYSMNWVRQAPGKGLEWVAGINYNGGYTSYADSVKGRFTISRDNSKNTLYLQMNSLRAEDTAVYYCARSANWHDTALDYWGQGTLVTVSS VL: DIQMTQSPSSLSASVGDRVTITCRASQSIVSYLNWYQQKPGKAPKLVIYAATSRASGVPSRFSGSGSGTDFTLTISSLQPEDFATYYCQQSYNSPLTFGGGTKVEIK — recorded optical density = 3.22

Measured optical density, 369_H09 (antibody, V domains shown) VH: EVQLLESGGGLVQPGGSLRLSCAASGFTFDDYSMNWVRQAPGKGLEWVSGINYNGGYTSYADSVKGRFTISRDNSKNTLYLQMNSLRAEDTAVYYCARSANWHDTALDYWGQGTLVTVSS VL: DIQMTQSPSSLSASVGDRVTITCRASQSILSYVNWYQQKPGKAPKLLIYAVTSLASGVPSRFSGSGSGTDFTLTISSLQPEDFATYYCQQSYESPLTFGGGTKVEIK : 2.64

The reported optical density of the binder 367_G06 (antibody, V domains shown) VH: EVQLLESGGGLVQPGGSLRLSCAASGFTFSSYGMNWVRQAPGKGLEWVSGINYNSGYKSYADSVKGRFTISRDNSKNTLYLQMNSLRAEDTAVYYCARSANWHDTHLDYWGQGTLVTVSS VL: DIQMTQSPSSLSASVGDRVTITCRASQSILTYVNWYQQKPGKAPKLLIYATTSLHSGVPSRFSGSGSGTDFTLTISSLQPEDFATYYCQQSYDTPLTFGGGTKVEIK was 2.81

Documented optical density of 368_A01 (antibody, V domains shown) VH: EVQLLESGGGLVQPGGSLRLSCAASGFTFSSYGMNWVRQAPGKGLEWVSNINYNGGYTSYADSVKGRFTISRDNSKNTLYLQMNSLRAEDTAVYYCARSANWHDTALDYWGQGTLVTVSS VL: DIQMTQSPSSLSASVGDRVTITCRASQSIISYLNWYQQKPGKAPKLLIYAATSRHSGVPSRFSGSGSGTDFTLTISSLQPEDFATYYCQQSYDNPLTFGGGTKVEIK : 2.9

For this binder ( 372_F06 (antibody, V domains shown) VH: EVQLLESGGGLVQPGGSLRLSCAASGFTFSDYGMNWVRQAPGKGLEWVAGINYNGGYKSYADSVKGRFTISRDNSKNTLYLQMNSLRAEDTAVYYCARSANWHDTALDYWGQGTLVTVSS VL: DIQMTQSPSSLSASVGDRVTITCRASQSILSYVNWYQQKPGKAPKLLIYAATSLASGVPSRFSGSGSGTDFTLTISSLQPEDFATYYCQQSYETPLTFGGGTKVEIK ), measured optical density is 2.54
